Test system: NOMO1
Assay: cell viability relative to DMSO control; higher = less cytotoxic
Conditions: RPMI 5 mM glucose + 10% FBS; 48 h; 0.000781 µM
experimental-endpoint: cell viability

Write down cell viability measured for item COC1=CC(=C2C(=O)N(COC/3=C/C(=O)N4\C=C/C=C(OCCN5CCCCC5)\C4=N3)[S+]([O-])(=O)C2=C1)C(C)C
121%

Write down cell viability measured for item CN(C)c1ccccc1CN1CCCN(Cc2ccccc2N(C)C)C1c1ccncc1
86.4%

Write down cell viability measured for item COC1=CC=CC(=C1/C2=N/CC3=C(N=C(NC4=CC(=C(C=C4)C(O)=O)OC)N=C3)C5=CC=C(Cl)C=C25)F
70.8%

Write down cell viability measured for item CC[C@@H](C)[C@H](NC(=O)[C@H](CC1CCCCC1)NC(=O)c1ccno1)C(=O)N1CCC2(CCc3ccccc32)CC1
80.1%

Write down cell viability measured for item COC1=C(CC=C(C)C)C2=C(\C=C/C(=O)O2)C=C1
114%

Write down cell viability measured for item N[S+](=O)([O-])c1cc2c(cc1Cl)NCN[S+]2(=O)[O-]
108%

Write down cell viability measured for item COc1cc([C@@H]2c3cc4c(cc3[C@@H](O[C@@H]3O[C@@H]5CO[C@@H](C)O[C@H]5[C@H](O)[C@H]3O)[C@H]3COC(=O)[C@H]23)OCO4)cc(OC)c1O
95.4%

Write down cell viability measured for item OC[C@H]1O[C@H](C[C@@H]1O)N2\C=C(\I)C(=O)NC2=O
112%

* * *

System: P12-Ichikawa
Experiment: cell viability relative to DMSO control; higher = less cytotoxic
Details: RPMI 5 mM glucose + 10% FBS; 48 h; 0.19 µM
Quick reference: cell viability of the listed items.
Your answer should be a plain number; it is taken to be in %.

Write down cell viability measured for item N[S+](=O)([O-])c1cc2c(cc1Cl)NCN[S+]2(=O)[O-]
126

Write down cell viability measured for item COc1cc([S+](C)(=O)[O-])ccc1Nc1nc2ccc(-c3ccc(NC(=O)[C@H](C)c4ccc(F)cc4)cc3)cn2n1
117

More entries:
Write down cell viability measured for item CC(C)(OCc1nn(Cc2ccccc2)c2ccccc12)C(=O)O
88.6

Write down cell viability measured for item CCNC(=O)c1noc(-c2cc(C(C)C)c(O)cc2O)c1-c1ccc(CN2CCOCC2)cc1
41

Write down cell viability measured for item CN1C(=O)\C(=C/C2=C1N=C(NC3CCOCC3)N=C2)OC4=C(F)C=C(F)C=C4
96.6

* * *

Quick reference: cell viability of the listed items.
Tested on: NOMO1
Assay: cell viability relative to DMSO control; higher = less cytotoxic
Details: HPLM + 10% dialyzed FBS; 48 h; 15.4 µM
Your answer should be a plain number; it is taken to be in %.

Write down cell viability measured for item Clc1ccc(C(Cn2ccnc2)OCc2ccc(Sc3ccccc3)cc2)c(Cl)c1 (centres undefined)
98.8

Write down cell viability measured for item O=C1CCc2cc(OCCCCc3nnnn3C3CCCCC3)ccc2N1
124

Write down cell viability measured for item COC1=CC2=C(C=C1CC3=C(F)C(=CC=C3)Cl)C(=O)\C(=C/N2[C@H](CO)C(C)C)C(O)=O
89.6

Write down cell viability measured for item CN1CCN(CC1)C/2=N/C3=CC=CC=C3NC4=C2C=C(C)S4
75.5

Write down cell viability measured for item CCN(CCO)CCCC(C)Nc1ccnc2cc(Cl)ccc12 (centres undefined)
53.2

Write down cell viability measured for item COc1cc([C@@H]2c3cc4c(cc3[C@@H](O[C@@H]3O[C@@H]5CO[C@@H](C)O[C@H]5[C@H](O)[C@H]3O)[C@H]3COC(=O)[C@H]23)OCO4)cc(OC)c1O
18.1

Write down cell viability measured for item COc1ccccc1OCC(O)CN1CCN(CC(=O)Nc2c(C)cccc2C)CC1 (centres undefined)
138

Write down cell viability measured for item O=C(O)c1nn(Cc2ccc(Cl)cc2Cl)c2ccccc12
76.5

More entries:
Write down cell viability measured for item COCCNCCCn1c(C(=O)CF)c(-c2ccc(C)cc2)c2c(N)ncnc21
105
